Molecular target: folate receptor alpha (FRα) on cells (human, UniProt P15328 25-234)
Sequence (P15328 25-234): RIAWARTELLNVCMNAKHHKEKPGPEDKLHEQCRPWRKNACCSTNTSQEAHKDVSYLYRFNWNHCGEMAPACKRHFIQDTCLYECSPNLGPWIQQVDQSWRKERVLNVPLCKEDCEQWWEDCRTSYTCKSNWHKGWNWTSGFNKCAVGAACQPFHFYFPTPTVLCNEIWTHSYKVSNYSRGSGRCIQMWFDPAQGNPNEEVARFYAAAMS
Experiment: cell-based or functional assay
Record form. Attribute: IC50, in vitro cytotoxicity (WST-8, 5 days), KB cells, ADC. Fill in for each entry.
Supply the numeric figure in nM, leaving out any unit text.

*Q* Recorded IC50, in vitro cytotoxicity (WST-8, 5 days), KB cells, ADC for conjugate 17i (antibody, human IgG1, kappa, V domains shown, thio-peptide-maytansinoid 14i linked through sulfo-GMBS to antibody amines (Example 4)) VH: QVQLVQSGAEVVKPGASVKISCKASGYTFTGYFMNWVKQSPGQSLEWIGRIHPYDGDTFYNQKFQGKATLTVDKSSNTAHMELLSLTSEDFAVYYCTRYDGSRAMDYWGQGTTVTVSS VL: DIVLTQSPLSLAVSLGQPAIISCKASQSVSFAGTSLMHWYHQKPGQQPRLLIYRASNLEAGVPDRFSGSGSKTDFTLTISPVEAEDAATYYCQQSREYPYTFGGGTKLEIKR , please?
*A* 0.3

*Q* Recorded IC50, in vitro cytotoxicity (WST-8, 5 days), KB cells, ADC for conjugate 17h (antibody, human IgG1, kappa, V domains shown, thio-peptide-maytansinoid 14h linked through sulfo-GMBS to antibody amines (Example 4)) VH: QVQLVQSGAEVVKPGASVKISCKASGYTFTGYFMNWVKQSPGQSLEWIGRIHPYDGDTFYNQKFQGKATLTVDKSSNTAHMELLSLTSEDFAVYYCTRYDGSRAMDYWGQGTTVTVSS VL: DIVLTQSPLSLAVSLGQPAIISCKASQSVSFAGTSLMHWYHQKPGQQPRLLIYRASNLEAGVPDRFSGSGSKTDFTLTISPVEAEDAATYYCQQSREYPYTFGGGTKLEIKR , please?
*A* 0.4

*Q* Recorded IC50, in vitro cytotoxicity (WST-8, 5 days), KB cells, ADC for M9346A-sGMBS-LDL-DM (conjugate 17c) (antibody, human IgG1, kappa, V domains shown, maytansinoid LDL-DM (compound 14c, L-Ala-D-Ala-L-Ala) linked through sulfo-GMBS to antibody amines, 3.7 mol LDL-DM/mol antibody) VH: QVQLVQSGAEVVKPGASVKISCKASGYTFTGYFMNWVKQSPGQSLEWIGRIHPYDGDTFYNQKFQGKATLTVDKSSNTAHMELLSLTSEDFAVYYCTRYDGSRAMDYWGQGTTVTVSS VL: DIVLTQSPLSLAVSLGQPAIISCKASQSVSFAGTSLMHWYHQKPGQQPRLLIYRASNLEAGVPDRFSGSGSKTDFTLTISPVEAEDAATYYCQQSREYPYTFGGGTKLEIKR , please?
*A* 0.3

*Q* Recorded IC50, in vitro cytotoxicity (WST-8, 5 days), KB cells, ADC for conjugate 17g (antibody, human IgG1, kappa, V domains shown, thio-peptide-maytansinoid 14g linked through sulfo-GMBS to antibody amines (Example 4)) VH: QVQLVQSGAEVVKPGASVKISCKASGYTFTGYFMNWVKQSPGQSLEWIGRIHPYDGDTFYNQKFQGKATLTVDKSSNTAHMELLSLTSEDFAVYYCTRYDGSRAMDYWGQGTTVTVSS VL: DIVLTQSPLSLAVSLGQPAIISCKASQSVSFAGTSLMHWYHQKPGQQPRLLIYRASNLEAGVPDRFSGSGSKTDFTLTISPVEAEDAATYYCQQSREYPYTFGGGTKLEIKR , please?
*A* 0.3

*Q* Recorded IC50, in vitro cytotoxicity (WST-8, 5 days), KB cells, ADC for Mov19v1.6-GMBS-dAlalAla-PAB-DM1 (conjugate 4b) (antibody, human IgG1, kappa, V domains shown, D-Ala-L-Ala-PAB-DM1 linked through GMBS, about 3.5 DM/Ab) VH: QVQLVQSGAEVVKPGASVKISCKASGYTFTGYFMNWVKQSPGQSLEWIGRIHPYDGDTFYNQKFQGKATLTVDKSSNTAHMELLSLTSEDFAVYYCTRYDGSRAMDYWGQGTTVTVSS VL: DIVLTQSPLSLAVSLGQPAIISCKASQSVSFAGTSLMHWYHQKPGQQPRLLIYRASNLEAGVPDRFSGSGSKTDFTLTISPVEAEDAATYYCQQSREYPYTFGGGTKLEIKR , please?
*A* 0.2
